# Test system: Escherichia coli MG1655
# Type: cell-based
Where a SMILES comes first, the peptide text is derived from it. [ ]: non-standard residue; d: D form.
quantityKind: MIC E. coli, Medium (µM)
Give your result in µM as a bare value.

The following compounds have reported results that may help.
• CC(C)C[C@H](NC(=O)[C@@H](Cc1c[nH]c2ccccc12)NC(=O)[C@H](CC(C)C)NC(=O)[C@@H](Cc1c[nH]c2ccccc12)NC(=O)[C@H](CCCNC(=N)N)NC(=O)[C@@H](CCCCN)NC(=O)[C@@H](N)CCCNC(=N)N)C(=O)N[C@H](CCCCN)C(=O)N[C@@H](CCCNC(=N)N)C(=O)N[C@H](CCCCN)C(=O)N[C@@H](Cc1c[nH]c2ccccc12)C(=O)N[C@H](CC(C)C)C(=O)N[C@@H](Cc1c[nH]c2ccccc12)C(N)=O [AS02] (H-R[dK]R[dW]L[dW]L[dK]R[dK]W[dL]W-NH2) = 6.25
• CC(C)C[C@@H](NC(=O)[C@H](Cc1c[nH]c2ccccc12)NC(=O)[C@@H](CC(C)C)NC(=O)[C@@H](N)Cc1c[nH]c2ccccc12)C(=O)N[C@@H](Cc1c[nH]c2ccccc12)C(=O)N[C@H](CC(C)C)C(=O)N[C@@H](Cc1c[nH]c2ccccc12)C(=O)N[C@@H](C(=O)N[C@@H](CCCCN)C(=O)N[C@H](CCCCN)C(=O)N[C@@H](C)C(=O)N[C@H](CCCCN)C(=O)N[C@@H](C)C(=O)N[C@H](CCCCN)C(=O)N[C@@H](CCCCN)C(N)=O)C(C)C [AS08] (H-W[dL]W[dL]W[dL]W[dV]K[dK]A[dK]A[dK]K-NH2) = 6.25
• CC(C)[C@H](NC(=O)[C@H](NC(=O)[C@H](CCCCN)NC(=O)[C@@H](CCCCN)NC(=O)[C@H](CCCCN)NC(=O)[C@H](NC(=O)[C@@H](NC(=O)[C@H](NC(=O)[C@H](CCCCN)NC(=O)[C@@H](CCCCN)NC(=O)[C@@H](N)CCCCN)C(C)C)C(C)C)C(C)C)C(C)C)C(=O)N[C@H](Cc1c[nH]c2ccccc12)C(=O)N[C@@H](CCCCN)C(N)=O [AS06] (H-K[dK]K[dV]V[dV]K[dK]K[dV]V[dW]K-NH2) = 25
• CC(C)[C@H](NC(=O)[C@@H](Cc1c[nH]c2ccccc12)NC(=O)[C@H](Cc1c[nH]c2ccccc12)NC(=O)[C@@H](CCCCN)NC(=O)[C@H](CCCNC(=N)N)NC(=O)[C@@H](CCCCN)NC(=O)[C@@H](NC(=O)[C@H](NC(=O)[C@H](Cc1c[nH]c2ccccc12)NC(=O)[C@@H](Cc1c[nH]c2ccccc12)NC(=O)[C@H](CCCNC(=N)N)NC(=O)[C@@H](CCCCN)NC(=O)[C@@H](N)CCCNC(=N)N)C(C)C)C(C)C)C(N)=O [AS01] (H-R[dK]R[dW]W[dV]V[dK]R[dK]W[dW]V-NH2) = 3.13

Shift focus to the following entry.
Input line: Entry CC(C)[C@H](NC(=O)[C@H](NC(=O)[C@H](Cc1c[nH]c2ccccc12)NC(=O)[C@@H](Cc1c[nH]c2ccccc12)NC(=O)[C@H](CCCCN)NC(=O)[C@@H](CCCCN)NC(=O)[C@H](CCCCN)NC(=O)[C@H](NC(=O)[C@H](Cc1c[nH]c2ccccc12)NC(=O)[C@@H](Cc1c[nH]c2ccccc12)NC(=O)[C@H](CCCCN)NC(=O)[C@@H](CCCCN)NC(=O)[C@@H](N)CCCCN)C(C)C)C(C)C)C(N)=O [AS03] (H-K[dK]K[dW]W[dV]K[dK]K[dW]W[dV]V-NH2) has what MIC E. coli, Medium?
Output line: 6.25

Where do the numbers come from? From paper PMC7815786.
